Measured Size (volume average particle size/diameter) by item
test: Dynamic light scattering (DLS) of Fluc mRNA/peptoid formulations: particle size and polydispersity; assay type: physicochemical; settings: Fluc mRNA/peptoid complex, 5:1 mass ratio peptoid:cargo
Numeric answer plus unit only.

molecule	meas value
CCCCCCCCCCN(CC(N)=O)C(=O)CN(CCCCCCCCCC)C(=O)CN(CCCCCCCCCC)C(=O)CN(CCCCCCCCCC)C(=O)CN(CCCCCCCCCC)C(=O)CN(CCc1ccccc1)C(=O)CN(CCc1ccccc1)C(=O)CN(CCN)C(=O)CN(CCc1ccccc1)C(=O)CN(CCc1ccccc1)C(=O)CNCCN [Compound 20]	326.6 nm
CCCCCCCCCCN(CC(N)=O)C(=O)CN(CCCCCCCCCC)C(=O)CN(CCCCCCCCCC)C(=O)CN(CCCCCCCCCC)C(=O)CN(CCc1ccccc1)C(=O)CN(CCc1ccccc1)C(=O)CN(CCCN)C(=O)CN(CCc1ccccc1)C(=O)CN(CCc1ccccc1)C(=O)CN(CCCN)C(=O)CN(CCc1ccccc1)C(=O)CN(CCc1ccccc1)C(=O)CNCCCN [Compound 28]	308 nm
CCCCCCCCCCNCC(=O)N(CCN)CC(=O)N(CCc1ccccc1)CC(=O)N(CCc1ccccc1)CC(=O)N(CCN)CC(=O)N(CCc1ccccc1)CC(=O)N(CCc1ccccc1)CC(=O)N(CCN)CC(=O)N(CCc1ccccc1)CC(=O)N(CCc1ccccc1)CC(=O)N(CCCCCCCCCC)CC(N)=O [Compound 18]	593 nm
CCCCCCCCN(CC(N)=O)C(=O)CN(CCCCCCCC)C(=O)CN(CCc1ccccc1)C(=O)CN(CCc1ccccc1)C(=O)CN(CCN)C(=O)CN(CCc1ccccc1)C(=O)CN(CCc1ccccc1)C(=O)CN(CCN)C(=O)CN(CCc1ccccc1)C(=O)CN(CCc1ccccc1)C(=O)CNCCN [Compound 1]	356.9 nm

Below: the item to evaluate.
Input: Which Size (volume average particle size/diameter) is listed for CCCCCCCCCCN(CC(N)=O)C(=O)CN(CCCCCCCCCC)C(=O)CN(CCc1ccccc1)C(=O)CN(CCc1ccccc1)C(=O)CN(CC1CCNCC1)C(=O)CN(CCc1ccccc1)C(=O)CN(CCc1ccccc1)C(=O)CN(CC1CCNCC1)C(=O)CN(CCc1ccccc1)C(=O)CN(CCc1ccccc1)C(=O)CNCC1CCNCC1 [Compound 33] ?
Output: 435.7 nm

---

assay: Dynamic light scattering (DLS) of Fluc mRNA/peptoid formulations: particle size and polydispersity; format: physicochemical; settings: Fluc mRNA/peptoid formulation, 5:1 mass ratio peptoid:cargo
Measured Size PDI (size polydispersity index) by item

Illustrative cases are given below, each with its answer.
compound	Size PDI (size polydispersity index)
CCCCCCCCCCN(CC(N)=O)C(=O)CN(CCCCCCCCCC)C(=O)CN(CCc1ccccc1)C(=O)CN(CCc1ccccc1)C(=O)CNCCN [Compound 9]	0.122
CCCCCCCCCCN(CC(N)=O)C(=O)CN(CCCCCCCCCC)C(=O)CN(CCCCCCCCCC)C(=O)CN(CCc1ccccc1)C(=O)CN(CCc1ccccc1)C(=O)CN(CCN)C(=O)CN(CCc1ccccc1)C(=O)CN(CCc1ccccc1)C(=O)CN(CCN)C(=O)CN(CCc1ccccc1)C(=O)CN(CCc1ccccc1)C(=O)CNCCN [Compound 7]	0.177

Input: Which Size PDI (size polydispersity index) is listed for CCCCCCCCCCNCC(=O)N(CCN)CC(=O)N(CCc1ccccc1)CC(=O)N(CCc1ccccc1)CC(=O)N(CCN)CC(=O)N(CCc1ccccc1)CC(=O)N(CCc1ccccc1)CC(=O)N(CCN)CC(=O)N(CCc1ccccc1)CC(=O)N(CCc1ccccc1)CC(=O)N(CCCCCCCCCC)CC(N)=O [Compound 18] ?
Output: 0.762

Input: Check CCCCCCCCCCCCCCCCCCN(CC(N)=O)C(=O)CN(CCCCCCCCCCCCCCCCCC)C(=O)CN(CCc1ccccc1)C(=O)CN(CCc1ccccc1)C(=O)CN(CCN)C(=O)CN(CCc1ccccc1)C(=O)CN(CCc1ccccc1)C(=O)CN(CCN)C(=O)CN(CCc1ccccc1)C(=O)CN(CCc1ccccc1)C(=O)CNCCN [Compound 5] too.
Output: 0.308

Input: Check CCCCCCCCCCN(CC(N)=O)C(=O)CN(CCCCCCCCCC)C(=O)CN(CCc1ccccc1)C(=O)CN(CCc1ccccc1)C(=O)CN(CCN)C(=O)CN(CCc1ccccc1)C(=O)CN(CCc1ccccc1)C(=O)CN(CCN)C(=O)CN(CCc1ccccc1)C(=O)CN(CCc1ccccc1)C(=O)CNCCN [Compound 2] too.
Output: 0.128

Input: Check CCCCCCCCCCN(CC(N)=O)C(=O)CN(CCCCCCCCCC)C(=O)CN(CCc1ccccc1)C(=O)CN(CCc1ccccc1)C(=O)CN(CCNC)C(=O)CN(CCc1ccccc1)C(=O)CN(CCc1ccccc1)C(=O)CN(CCNC)C(=O)CN(CCc1ccccc1)C(=O)CN(CCc1ccccc1)C(=O)CNCCNC [Compound 27] too.
Output: 0.606

Input: Check CCCCCCCCCCN(CC(N)=O)C(=O)CN(CCCCCCCCCC)C(=O)CN(CCN)C(=O)CN(CCN)C(=O)CN(CCN)C(=O)CN(CCN)C(=O)CN(CCN)C(=O)CN(CCN)C(=O)CN(CCN)C(=O)CN(CCN)C(=O)CNCCN [Compound 16] too.
Output: 1

Input: Check CCCCCCCCCCCCN(CC(N)=O)C(=O)CN(CCCCCCCCCCCC)C(=O)CN(CCc1ccc(OC)cc1)C(=O)CN(CCc1ccc(OC)cc1)C(=O)CN(CCN)C(=O)CN(CCc1ccc(OC)cc1)C(=O)CN(CCc1ccc(OC)cc1)C(=O)CN(CCN)C(=O)CN(CCc1ccc(OC)cc1)C(=O)CN(CCc1ccc(OC)cc1)C(=O)CNCCN [Compound 4] too.
Output: 0.191

---

assay: mRNA encapsulation by Qubit RNA HS dye fluorescence before and after Triton X-100 lysis; type: physicochemical; conditions: Fluc mRNA/peptoid formulation, 5:1 mass ratio peptoid:cargo
Measured % Encapsulation (percentage of mRNA encapsulation) by item
# unit: % | format: bare number

Illustrative cases are given below, each with its answer.
compound	meas value
CCCCCCCCCCN(CC(N)=O)C(=O)CN(CCCCCCCCCC)C(=O)CN(CCCCCCCCCC)C(=O)CN(CCCCCCCCCC)C(=O)CN(CCc1ccccc1)C(=O)CN(CCc1ccccc1)C(=O)CN(CCCN)C(=O)CN(CCc1ccccc1)C(=O)CN(CCc1ccccc1)C(=O)CN(CCCN)C(=O)CN(CCc1ccccc1)C(=O)CN(CCc1ccccc1)C(=O)CNCCCN [Compound 28]	52.0
CCCCCCCCCCN(CC(N)=O)C(=O)CN(CCCCCCCCCC)C(=O)CN(CCc1ccccc1)C(=O)CN(CCc1ccccc1)C(=O)CN(CCCN)C(=O)CN(CCc1ccccc1)C(=O)CN(CCc1ccccc1)C(=O)CN(CCCN)C(=O)CN(CCc1ccccc1)C(=O)CN(CCc1ccccc1)C(=O)CNCCCN [Compound 30]	8.4
CCCCCCCCN(CC(N)=O)C(=O)CN(CCCCCCCC)C(=O)CN(CCc1ccccc1)C(=O)CN(CCc1ccccc1)C(=O)CN(CCN)C(=O)CN(CCc1ccccc1)C(=O)CN(CCc1ccccc1)C(=O)CN(CCN)C(=O)CN(CCc1ccccc1)C(=O)CN(CCc1ccccc1)C(=O)CNCCN [Compound 1]	90.1
CCCCCCCCCCN(CC(N)=O)C(=O)CN(CCCCCCCCCC)C(=O)CN(CCN)C(=O)CN(CCN)C(=O)CNCCN [Compound 14]	77.3

Input: Which % Encapsulation (percentage of mRNA encapsulation) is listed for CCCCCCCCCCCCCCCCCCN(CC(N)=O)C(=O)CN(CCCCCCCCCCCCCCCCCC)C(=O)CN(CCc1ccccc1)C(=O)CN(CCc1ccccc1)C(=O)CN(CCN)C(=O)CN(CCc1ccccc1)C(=O)CN(CCc1ccccc1)C(=O)CN(CCN)C(=O)CN(CCc1ccccc1)C(=O)CN(CCc1ccccc1)C(=O)CNCCN [Compound 5] ?
Output: 88.3

Input: Check CCCCCCCCCCN(CC(N)=O)C(=O)CN(CCCCCCCCCC)C(=O)CN(CCc1ccccc1)C(=O)CN(CCc1ccccc1)C(=O)CNCCN [Compound 9] too.
Output: 73.9

Input: Check CCCCCCCCCCN(CC(=O)N(CCN)CC(=O)N(CCc1ccccc1)CC(=O)N(CCc1ccccc1)CC(=O)N(CCCCCCCCCC)CC(=O)N(CCN)CC(=O)N(CCc1ccccc1)CC(=O)N(CCc1ccccc1)CC(N)=O)C(=O)CN(CCc1ccccc1)C(=O)CN(CCc1ccccc1)C(=O)CNCCN [Compound 17] too.
Output: 90.3

Input: Check CCCCCCCCCCCCN(CC(N)=O)C(=O)CN(CCCCCCCCCCCC)C(=O)CN(CCc1ccccc1)C(=O)CN(CCc1ccccc1)C(=O)CN(CCN)C(=O)CN(CCc1ccccc1)C(=O)CN(CCc1ccccc1)C(=O)CN(CCN)C(=O)CN(CCc1ccccc1)C(=O)CN(CCc1ccccc1)C(=O)CNCCN [Compound 3] too.
Output: 95.9

Input: Check CCCCCCCCCCNCC(=O)N(CCN)CC(=O)N(CCc1ccccc1)CC(=O)N(CCc1ccccc1)CC(=O)N(CCN)CC(=O)N(CCc1ccccc1)CC(=O)N(CCc1ccccc1)CC(=O)N(CCN)CC(=O)N(CCc1ccccc1)CC(=O)N(CCc1ccccc1)CC(=O)N(CCCCCCCCCC)CC(N)=O [Compound 18] too.
Output: 88.5

Input: Check CCCCCCCCCCN(CC(N)=O)C(=O)CN(CCCCCCCCCC)C(=O)CN(CCc1ccccc1)C(=O)CN(CCc1ccccc1)C(=O)CN(CCN)C(=O)CN(CCc1ccccc1)C(=O)CN(CCc1ccccc1)C(=O)CNCCN [Compound 10] too.
Output: 92.6

Input: Check CCCCCCCCCCN(CC(N)=O)C(=O)CN(CCc1ccccc1)C(=O)CN(CCc1ccccc1)C(=O)CN(CCN)C(=O)CN(CCc1ccccc1)C(=O)CN(CCc1ccccc1)C(=O)CN(CCN)C(=O)CN(CCc1ccccc1)C(=O)CN(CCc1ccccc1)C(=O)CNCCN [Compound 6] too.
Output: 92.4

Input: Check CCCCCCCCCCN(CC(N)=O)C(=O)CN(CCCCCCCCCC)C(=O)CN(CCCCCCCCCC)C(=O)CN(CCCCCCCCCC)C(=O)CN(CCCCCCCCCC)C(=O)CN(CCCCCCCCCC)C(=O)CN(CCc1ccccc1)C(=O)CN(CCc1ccccc1)C(=O)CN(CCN)C(=O)CN(CCc1ccccc1)C(=O)CN(CCc1ccccc1)C(=O)CN(CCN)C(=O)CN(CCc1ccccc1)C(=O)CN(CCc1ccccc1)C(=O)CNCCN [Compound 22] too.
Output: 65.4

Input: Check CCCCCCCCCCN(CC(N)=O)C(=O)CN(CCCCCCCCCC)C(=O)CN(CCCCCCCCCC)C(=O)CN(CCc1ccccc1)C(=O)CN(CCc1ccccc1)C(=O)CN(CCN)C(=O)CN(CCc1ccccc1)C(=O)CN(CCc1ccccc1)C(=O)CN(CCN)C(=O)CN(CCc1ccccc1)C(=O)CN(CCc1ccccc1)C(=O)CNCCN [Compound 7] too.
Output: 88.4

Input: Check CCCCCCCCCCN(CC(N)=O)C(=O)CN(CCCCCCCCCC)C(=O)CN(CCCCCCCCCC)C(=O)CN(CCCCCCCCCC)C(=O)CN(CCc1ccccc1)C(=O)CN(CCc1ccccc1)C(=O)CN(CCNC)C(=O)CN(CCc1ccccc1)C(=O)CN(CCc1ccccc1)C(=O)CN(CCNC)C(=O)CN(CCc1ccccc1)C(=O)CN(CCc1ccccc1)C(=O)CNCCNC [Compound 25] too.
Output: 8.4

Origin of values: patent US11701434B2
